Origin of measurements: patent US12528816B2

Documented IC50 across a set of compounds
- study_system: human CaMKIIδ (Homo sapiens)
- Construct: Full-length, glutathione-S-transferase(GST)-tagged, human CaMKIIδ was purchased from Carna Biosciences; purchased Carna Biosciences (CaMKIIδ); Wako Pure Chemical Industries (calmodulin) 02-111
- experiment_summary: Evaluation of in vitro CaMKII inhibitory activity (binding assay, TR-FRET)
- test_parameters: in vitro CaMKII inhibitory activity (binding assay), human CaMKIIδ; read-out: Act

Worked examples, 6 compounds total:
>>> df
                                   compound  value_observed
0  C[C@@H](Cn1cnnn1)Oc1cccc(-c2ccc3ncc(-c4c(C#N)ccc(F)c4F)n3n2)n1 [compound 422]         < 10 nM
1  C[C@@H](Cn1cnnn1)Oc1cccc(-c2ccc3ncc(-c4cccc(C(F)F)c4C#N)n3n2)c1 [Example 413]         < 10 nM
2  C[C@@H](Cn1cnnn1)Oc1cncc(-c2ccc3ncn(-c4cc(C(F)F)ccc4C#N)c3n2)n1 [compound 384]        > 100 nM
3  C[C@@H](Cn1cnnn1)Oc1cc(-c2ccn3ncc(-c4cc(F)ccc4C#N)c3n2)ccn1 [compound 319]         < 10 nM
4  C[C@@H](Cn1cnnn1)Oc1cc(-c2ccc3ncn(-c4cc(F)ccc4C#N)c3n2)ncn1 [Example 305]    10 to 100 nM
5  C[C@@H](Cn1cnnn1)Oc1cccc(-c2ccc3ncc(-c4cc(F)cnc4OCC#N)n3n2)c1 [compound 359]         < 10 nM

Now consider a different compound.
Task item: # returns recorded IC50 (system: human CaMKIIδ (Homo sapiens)) for COc1nc(-c2cnc3ccc(-c4cccc(O[C@@H](C)Cn5cnnn5)c4)nn23)ccc1C#N [compound 312]
Reply: < 10 nM
